system: Cullin-3 (CUL3) neddylation; experiment: AlphaLISA assay for Cullin-3 (CUL3) neddylation in TF 1 cells; format: cell-based; conditions: Homo sapiens, TF-1, 3 h, 3 hours treatment
value-type: IC50

Solved cases (2 shown):
C=C(CN1CCC12COC2)C(=O)NCc1nn(-c2ccccc2)c2c1[C@H](c1ccc(F)cc1)[C@H](NC(=O)c1cccc(C(F)(F)F)c1)C(=O)N2CC ... ≤ 100 nM
CCN1C(=O)[C@@H](NC(=O)c2ccn(C(F)(F)F)n2)[C@@H](c2ccc(F)cc2)c2c(C(=O)N3CCOC[C@H]3C#N)nn(-c3ccccc3)c21 ... ≤ 100 nM

query: Give IC50 for the following compound: CCN1C(=O)[C@@H](NC(=O)c2cccc(C(F)(F)F)c2)[C@@H](c2ccc(F)cc2)c2c(CNC(=O)C3=CCC3)nn(-c3ccccc3)c21 (racemic)
result: 100 to 1000 nM

query: Give IC50 for the following compound: CCN1C(=O)[C@@H](NC(=O)c2cccc(C(F)(F)F)c2)[C@@H](c2ccc(F)cc2)c2c(CN(C)C/C=C/C(=O)OC)nn(-c3ccccc3)c21 (racemic)
result: ≤ 100 nM

query: Give IC50 for the following compound: CCN1C(=O)[C@@H](NC(=O)c2cccc(C(F)(F)F)c2)[C@@H](c2ccc(F)cc2)c2c(C(=O)N3C[C@H](OC)C[C@H]3C#N)nn(C3CCOCC3)c21
result: ≤ 100 nM

query: Give IC50 for the following compound: C=C(CN1CCC1)C(=O)NCc1nn(-c2ccccc2)c2c1[C@@H](c1ccc(F)cc1)[C@H](NC(=O)c1cccc(C(F)(F)F)c1)C(=O)N2CC
result: ≤ 100 nM

query: Give IC50 for the following compound: CCN1C(=O)[C@@H](NC(=O)c2cccc(C(F)(F)F)c2)[C@@H](C2CC2)c2c(C(=O)N(C)[C@H](C#N)CCN(C)C)nn(C3CCOCC3)c21
result: ≤ 100 nM

query: Give IC50 for the following compound: CCN1C(=O)[C@@H](NC(=O)c2ccc3[nH]cnc3c2)[C@@H](C2CC2)c2c(C(=O)N3[C@H](C#N)C[C@H]4C[C@H]43)nn(C3CCOCC3)c21
result: > 1000 nM

query: Give IC50 for the following compound: CCN1C(=O)[C@@H](NC(=O)c2cccc(C(F)(F)F)c2)[C@@H](C2CC2)c2c(C(=O)N3CCS(=O)(=O)C[C@@H]3C#N)nn(-c3ccccc3)c21
result: ≤ 100 nM

query: Give IC50 for the following compound: CCN1C(=O)[C@@H](NC(=O)c2cccc(C(F)(F)F)c2)[C@@H](C2CC2)c2c(C(=O)N3CC[C@H]3C#N)nn(-c3ccccc3)c21
result: ≤ 100 nM

query: Give IC50 for the following compound: CCN1C(=O)[C@@H](NC(=O)c2cccc(C(F)(F)F)c2)[C@@H](c2ccc(F)cc2)c2c(CNC(=O)C(C)(C)C#N)nn(-c3ccccc3)c21 (racemic)
result: 100 to 1000 nM

query: Give IC50 for the following compound: CCN1C(=O)[C@@H](NC(=O)c2cccc(C(F)(F)F)c2)[C@@H](c2ccc(F)cc2)c2c(NC(=O)/C=C/C(F)(F)F)nn(-c3ccccc3)c21
result: ≤ 100 nM

query: Give IC50 for the following compound: CCN1C(=O)[C@H](NC(=O)c2cccc(C(F)(F)F)c2)[C@H](c2ccc(F)cc2)c2c(C(=O)N3CCNC[C@@H]3C#N)nn(-c3ccccc3)c21
result: > 1000 nM

query: Give IC50 for the following compound: CCN1C(=O)[C@@H](NC(=O)c2cccc(C(F)(F)F)c2)[C@@H](C2CC2)c2c(C(=O)N(C)C(C)C#N)nn(-c3ccccc3)c21 (mixture of isomers)
result: 100 to 1000 nM

query: Give IC50 for the following compound: CCN1C(=O)[C@@H](NC(=O)c2cccc(C(F)(F)F)c2)[C@@H](c2ccc(F)cc2)c2c(CN(C#N)CCCN3CC4(COC4)C3)nn(-c3ccccc3)c21
result: > 1000 nM

query: Give IC50 for the following compound: C=CS(=O)(=O)N(C)Cc1nn(-c2ccccc2)c2c1[C@H](c1ccc(F)cc1)[C@H](NC(=O)c1cccc(C(F)(F)F)c1)C(=O)N2CC (racemic)
result: ≤ 100 nM

query: Give IC50 for the following compound: CCN1C(=O)[C@@H](NC(=O)c2cccc(C(F)(F)F)c2)[C@@H](C2CCCC2)c2c(C(=O)N3CCC[C@H]3C#N)nn(C3CCOCC3)c21
result: ≤ 100 nM

query: Give IC50 for the following compound: CCN1C(=O)[C@@H](NC(=O)CCc2ccccc2)[C@@H](C2CC2)c2c(C(=O)N3[C@H](C#N)C[C@H]4C[C@H]43)nn(C3CCOCC3)c21
result: > 1000 nM

query: Give IC50 for the following compound: CCN1C(=O)[C@@H](NC(=O)c2cccc(C(F)(F)F)c2)[C@@H](c2ccc(F)cc2)c2c([C@@H](CF)NC#N)nn(-c3ccccc3)c21
result: ≤ 100 nM

query: Give IC50 for the following compound: CCN1C(=O)[C@@H](NC(=O)c2cccc(C(F)(F)F)c2)[C@@H](C2CC2)c2c(C(=O)N3CCNC[C@H]3C#N)nn(-c3ccccc3)c21
result: ≤ 100 nM

query: Give IC50 for the following compound: CCN1C(=O)[C@@H](NC(=O)c2cccc(C(F)(F)F)c2)[C@@H](C2CC2)c2c(C(=O)N3CC[C@H](OC)[C@H]3C#N)nn(C3CCOCC3)c21
result: ≤ 100 nM
